Target: RSV postfusion F (postF), F ΔFP (Respiratory Syncytial Virus, UniProt P03420 26-513)
Assay: BLI, IgG on anti-human IgG sensor, 100 nM antigen, 1:1 fit
Each entry below carries its reported log10 Kd.
Readout Label: log10 Kd (log10 of the value in nM)

- Binder: "ADI-41481 (antibody, V domains shown, also called Ab 763; Antibody Number 763) VH: QVQLVESGPGLVKPSETLSLACSVSGVSISTYYWTWIRQPPGKGLEWIGYISYSGSTNYNPSLKSRVTISADTSKNQFSLRLNSVTAADTAVYYCARTYYDFWSTYYGEFDHWGHGTLVTVSS VL: SYELTQPLSVSVALGQTARITCGGNNIESKNVHWYQQKPGQAPVVVMYRDTNRPSGIPERFSGSNSGNTATLTISRAQAGDEADYYCQVWDSGTAGVVFGGGTKVTVL"
  Reported: -0.35
- Binder: "ADI-41475 (antibody, V domains shown) VH: QVQLQESGPGLVKPSQTLSLTCAISGDSVSSNSAAWNWIRQSPSRGLEWLGRTYYRSKWWTDYAVSVKSRITINPDTSKNQFSLQLNSVTPEDTAVYYCARDPDSGNYFHYYGMDVWGQGTTVTVSS VL: ETTLTQSPATLSLSPGERATLSCRASQSASSYLAWYQQKPGQAPRLLIYDASKRATGIPARFSGSGSGTDFSLTISSLEPEDFAVYYCQLRSKWPPYTFGQGTKVEIK"
  Reported: 1.41
- Binder: "ADI-41502 (antibody, V domains shown, also called Ab 781; Antibody Number 781) VH: QVQLVQSGAEVKKPGSSVKVSCKASGGPFSSDAMSWVRQAPGQGLEWMGGIIPILGSATYAQKFKGRVTIAADESTSTSYMELSGLKYEDTAVYYCARPFYDPLTGYFDTFNVWGQGTTVTVSS VL: QSVLTQPRSVPGSPGQSVTISCTGTSGDVGGYNYVSWYQQHPGKAPKLVIYDVTKRPSGVPDRFSGSKSGNRASLTISGLQAEDEADYYCCSYAGSQTGYVFGTGTKVTVL"
  Reported: -0.51
- Binder: "ADI-41537 (antibody, V domains shown) VH: EVQLLESGGGLVQPGGSLRLSCAASEFTFSRYPMSWVRQAPGKGLEWVSGISVSGDSTYYADSVKGRLTISRDNSKNTLYLQMNSLRAEDTAVYYCAIDHYDTSGYYGMDVWGQGTTVTVSS VL: DIRLTQSPLSLPVTPGEPASISCRSSRSLLRSNGYNYLDWYLQKPGQSPQLLIYLGSNRASGVPDRFSGSGSGTDFTLKISRVEAEDVGVYYCMQALQSSYTFGQGTKLEIK"
  Reported: -0.31
- Binder: "ADI-41530 (antibody, V domains shown, also called Ab 802; Antibody Number 802) VH: QVQLVESGAEVKKPGASVKVSCRASGYTFSAYDINWVRQAPGQGLEWVGWMNPNSGNTGYALRFQGRVTMTRDTSINTAYMELSSLRSDDTAVYYCAAQLWYPNWGQGTLVTVSS VL: SYELTQPPSVSVGLGQTASITCGGNNIGSKSVHWYQQKPGQAPTLVIYRDTNRPSGIPERFSGSNSENTATLTISRAQAGDEADFYCQVSDNYSWVFGGGTKLTVL"
  Reported: -0.45
